Target: T1, recombinant human endotrophin (77 amino acids at the carboxy-terminal of the COL6α3 chain, HEK293-expressed, … (human, UniProt P12111 3101-3177))
T1 construct: the His-tag was removed by enterokinase, leaving the 77 amino acid endotrophin free of tags; also called ETP; recombinant endotrophin protein
T1 sequence (P12111 3101-3177 limits assumed): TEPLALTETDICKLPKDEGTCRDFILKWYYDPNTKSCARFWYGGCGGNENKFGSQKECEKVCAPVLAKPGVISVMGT
Experiment: BLI (Octet RED96), antibody on protein A biosensors, endotrophin 0.1-200 nM, 1:1 fit
Procedure: Following a short baseline in kinetics buffer, the loaded biosensors were exposed to a series of recombinant endotrophin protein at 0.1-200 nM and background subtraction was used to correct for sensor drifting. All experiments were performed with shaking at 1,000 rpm. Background wavelength shifts were measured from reference biosensors that were loaded only with antibody. […]
pKd: −log10 of the molar value.
result-type: pKd

1. ETP-mAb4 (antibody, V domains shown, Rabbit monoclonal; also called parental rabbit ETPmAb4) VH: SSRVKESGGDLVKPGASLTLTCKASGFSFSSGYYICWVRQAPGKGLEWIACIYGGNNNPYYANWVNGRFTTSKTSSTTVTLQMTNLTGADTATYFCARKDINIGGAYELWGPGTLVTISS VL: ELVMTQTPASVSEPVGGTVTINCQASQSISSSYLSWYQQKPGQPPKLLIYKASTLASGVPSRFKGSGSGTQFSLTISDLECADAATYYCQYSDWANSYGNAFGGGTEVVVK = 8.76
2. ETP-mAb4.1 (humanized ETP-hMab4) (antibody, human IgG1, V domains shown, Humanized; tied by the number 4.1; also called ENT-hMab4.1) VH: EVQLLESGGGLVQPGGSLRLSCAASGFSFSSGYYICWVRQAPGKGLEWIACIYGGNNNPYYANWVNGRFTISRDNSKNTLYLQMNSLRAEDTAVYYCARKDINIGGAYELWGQGTLVTVSS VL: DIQMTQSPSSLSASVGDRVTITCQASQSISSSYLSWYQQKPGKAPKLLIYKASTLASGVPSRFSGSGSGTDFTLTISSLQPEDFATYYCQYSDWANSYGNAFGGGTKVEIK = 8.69
